# credit: patent US20190315854A1

TARGET OF ASSAY: T1, sIL-6R (soluble IL-6 receptor; SBH Sciences) (human, UniProt P08887 20-365)
T1 construct: also called human IL-6R
T1 sequence: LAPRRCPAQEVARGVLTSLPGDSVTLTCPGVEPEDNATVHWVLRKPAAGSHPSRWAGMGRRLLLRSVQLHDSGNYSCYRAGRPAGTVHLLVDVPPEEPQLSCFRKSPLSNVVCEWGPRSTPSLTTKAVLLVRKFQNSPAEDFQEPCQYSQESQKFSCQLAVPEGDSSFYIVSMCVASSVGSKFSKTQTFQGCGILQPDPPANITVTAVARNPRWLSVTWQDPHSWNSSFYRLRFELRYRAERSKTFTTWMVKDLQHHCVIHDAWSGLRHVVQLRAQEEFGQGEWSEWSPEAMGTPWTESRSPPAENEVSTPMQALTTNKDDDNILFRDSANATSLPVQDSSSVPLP
TEST: SPR (BIAcore 3000), antibody on chip, sIL-6R analyte, 25 C
EXPERIMENTAL ENDPOINT: Relative Affinity

Fill in the blank: the reported Relative Affinity of 5# (antibody, human IgG1, kappa, V domains shown, also called Sample # 5) VH: QVQLQESGPGLVRPSQTLSLTCTVSGYSITSDHAWSWVRQPPGRGLEWIGFISYSGITTYNPSLKSRVTMLRDTSKNQFSLRLSSVTAADTAVYYCARSLARTTAMDYWGQGSLVTVSS VL: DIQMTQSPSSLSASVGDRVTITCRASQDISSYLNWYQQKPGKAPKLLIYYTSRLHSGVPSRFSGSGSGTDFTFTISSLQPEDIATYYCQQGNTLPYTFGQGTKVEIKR is ____.
1.5 fold vs 25 (Tocilizumab)

Please look up its Relative Affinity: 17# (antibody, human IgG1, kappa, V domains shown, also called Sample # 17) VH: QVQLQESGPGLVRPSQTLSLTCTVSGYSITSDHAWSWVRQPPGRGLEWIGFISYSGITTYNPSLKSRVTMLRDTSKNQFSLRLSSVTAADTAVYYCARCLARTTAMDYWGQGSLVTVSS VL: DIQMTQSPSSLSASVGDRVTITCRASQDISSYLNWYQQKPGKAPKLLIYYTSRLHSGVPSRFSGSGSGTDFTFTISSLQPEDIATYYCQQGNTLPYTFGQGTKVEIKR
4.4 fold vs 25 (Tocilizumab)

What value of Relative Affinity has been reported for the following binder? 9# (antibody, human IgG1, kappa, V domains shown, also called Sample # 9) VH: QVQLQESGPGLVRPSQTLSLTCTVSGYSITSDHAWSWVRQPPGRGLEWIGYISYSGIITYNASLKSRVTMLRDTSKNQFSLRLSSVTAADTAVYYCARCLARTTAMDYWGQGSLVTVSS VL: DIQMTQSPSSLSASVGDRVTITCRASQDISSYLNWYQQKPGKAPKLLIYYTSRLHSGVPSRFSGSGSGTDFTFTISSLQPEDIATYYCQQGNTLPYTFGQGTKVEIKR
5.4 fold vs 25 (Tocilizumab)

What measured Relative Affinity goes with 24# (antibody, human IgG1, kappa, V domains shown, also called Sample # 24) VH: QVQLQESGPGLVRPSQTLSLTCTVSGYSITSDHAWSWVRQPPGRGLEWIGYISYSGITTYNPSLKSRVTMLRDTSKNQFSLRLSSVTAADTAVYYCARCLARITAMDYWGQGSLVTVSS VL: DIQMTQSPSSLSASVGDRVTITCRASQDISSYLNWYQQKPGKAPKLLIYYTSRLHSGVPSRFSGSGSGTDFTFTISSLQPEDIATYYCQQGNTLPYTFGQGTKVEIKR ?
4.8 fold vs 25 (Tocilizumab)
